Target: MRGPRX4 (Homo sapiens, UniProt Q96LA9)
Sequence (Q96LA9 whole entry): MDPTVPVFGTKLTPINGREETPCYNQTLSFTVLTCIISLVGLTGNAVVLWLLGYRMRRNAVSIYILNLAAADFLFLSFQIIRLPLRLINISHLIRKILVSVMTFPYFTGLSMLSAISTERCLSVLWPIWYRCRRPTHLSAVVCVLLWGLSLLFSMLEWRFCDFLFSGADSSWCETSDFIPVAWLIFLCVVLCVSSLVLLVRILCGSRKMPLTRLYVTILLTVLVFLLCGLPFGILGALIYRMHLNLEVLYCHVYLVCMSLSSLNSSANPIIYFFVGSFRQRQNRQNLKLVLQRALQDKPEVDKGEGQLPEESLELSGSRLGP
Experiment: MRGPR X4 antagonist activity, IP-One Gq HTRF assay in stably transfected HEK cells (versus agonist bilirubin, deoxycholic acid, conjugated bilirubin, urobilin, obeticholic acid or BAR502)
Assay type: cell-based
Design: expressed in transfected cells; host or cells: HEK cells, stably transfected
Conditions: versus 10 μM Bilirubin agonist; HEK cells expressing human MRGPR X4; read-out: MRGPR4 Antagonist Activity
Below, each entry is listed alongside its reported IC50.
parameter: IC50

O=C(O)c1cccc(COc2ccc(C(F)(F)F)cc2C(F)(F)F)c1 ... < 100 nM
O=C(O)c1cccc(COc2cccc(C(F)(F)F)c2Cl)c1 ... 100 to 500 nM
COc1c(COc2ccc(Cl)cc2Cl)cccc1C(=O)O ... 1000 to 2500 nM
Cc1cc(CNc2ccc(C(F)(F)F)cc2Cl)nc(C(=O)O)c1 ... < 100 nM
Fc1ccc(COc2ccc(C(F)(F)F)cc2Cl)cc1-c1nnn[nH]1 ... < 100 nM
O=C(O)c1cccc(COc2ccc(Cl)cc2)n1 ... 500 to 1000 nM
O=C(O)c1cccc(COc2ccc(C(F)(F)F)cc2F)c1 ... < 100 nM
Fc1cc(OCc2cccc(-c3nnn[nH]3)c2)ccc1C(F)(F)F ... < 100 nM
COC(=O)c1cccc(COc2ccc3ccccc3c2)n1 ... < 100 nM
N#Cc1cc(Cl)c(F)cc1OCc1cccc(C(=O)O)c1 ... 100 to 500 nM
